assay: NCI Yeast Anticancer Drug Screen. Data for the mec2-1 strain (AID 157); details: S. cerevisiae mec2-1 strain, at 100.0 µM, active compounds read high
The panel holds about 79,000 compounds, 15% with a hit somewhere; the sample as a whole holds those more often.

[
  {
    "smilesRecord": "Cc1cc(C(C)(C)CC(C)(C)C)ccc1O",
    "growth inhibition, %": 99
  },
  {
    "smilesRecord": "CCOC(=O)c1ccc(NC(=O)O/N=C(/Cl)C(C)C)cc1",
    "growth inhibition, %": 99
  },
  {
    "smilesRecord": "O=c1[nH]c2ccc(Cl)cc2o1",
    "growth inhibition, %": -53
  },
  {
    "smilesRecord": "CNC(=O)OCc1c(COC(=O)NC)c2n(c1C)-c1ccc(OC)cc1CCC2",
    "growth inhibition, %": 99
  },
  {
    "smilesRecord": "CC1(C)CC(=O)C(/C=N/c2nc(-c3ccccc3)cs2)=C(O)C1",
    "growth inhibition, %": 76
  },
  {
    "smilesRecord": "COC1=C(OC)C(=O)C(Sc2ccc3ccccc3c2)=CC1=O",
    "growth inhibition, %": 89
  }
]
